Entries annotated with measured pEC50
Target: 5-HT2C receptor (Homo sapiens, UniProt P28335)
Sequence (P28335 33-458): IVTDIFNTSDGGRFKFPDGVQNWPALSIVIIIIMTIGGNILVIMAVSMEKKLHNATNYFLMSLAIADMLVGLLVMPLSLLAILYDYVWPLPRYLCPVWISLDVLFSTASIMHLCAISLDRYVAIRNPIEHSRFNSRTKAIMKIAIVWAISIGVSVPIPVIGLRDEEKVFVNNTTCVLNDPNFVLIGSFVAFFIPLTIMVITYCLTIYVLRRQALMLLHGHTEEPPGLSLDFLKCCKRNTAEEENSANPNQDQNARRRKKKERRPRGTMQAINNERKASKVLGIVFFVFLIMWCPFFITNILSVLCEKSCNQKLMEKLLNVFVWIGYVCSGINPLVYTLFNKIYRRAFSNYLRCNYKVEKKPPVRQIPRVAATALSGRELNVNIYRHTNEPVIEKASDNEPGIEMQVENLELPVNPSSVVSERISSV
Sequence (P32121 whole entry partner): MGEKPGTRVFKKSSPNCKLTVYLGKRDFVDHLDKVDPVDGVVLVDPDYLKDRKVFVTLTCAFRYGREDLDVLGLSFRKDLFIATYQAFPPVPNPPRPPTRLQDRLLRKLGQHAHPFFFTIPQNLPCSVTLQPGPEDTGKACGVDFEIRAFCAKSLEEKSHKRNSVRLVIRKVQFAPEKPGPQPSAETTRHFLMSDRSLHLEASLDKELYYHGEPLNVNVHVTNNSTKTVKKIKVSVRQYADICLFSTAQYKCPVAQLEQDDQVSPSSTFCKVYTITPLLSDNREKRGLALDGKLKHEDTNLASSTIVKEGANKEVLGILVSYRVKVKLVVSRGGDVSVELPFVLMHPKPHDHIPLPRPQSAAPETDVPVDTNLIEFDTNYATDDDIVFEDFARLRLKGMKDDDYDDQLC
Experiment: Human 5-HT2C functional assay (beta-arrestin2 recruitment, U2OS_HTR2C_β-Arrestin cells)
Conditions: beta-arrestin2 recruitment, U2OS_HTR2C_β-Arrestin cells, 1.5 h incubation; read-out: EC50 5-HT2C (potency in functional assay)
pEC50: −log10 of the molar value. Counter-ions that a name gives are not always drawn.
property: pEC50

compound="COc1nc(N2CCC3C(C2)C3(F)F)c(F)cc1CNC(=O)[C@@H]1CCCN1 (some centres unmarked)" value_reported="6.70 to 7.70"
compound="COc1nc(OC2CCC(OC)CC2)c(F)cc1CNC(=O)[C@@H]1CCCN1 (some centres unmarked)" value_reported="6.70 to 7.70"
compound="COc1nc(OC2CC(F)(F)C2)c(F)cc1CNC(=O)[C@@H]1CCCN1C [Example 71, Hydrochloride]" value_reported="> 7.70"
compound="COc1nc(OC2CCC(C(F)(F)F)CC2)c(F)cc1CNC(=O)[C@@H]1C[C@@H](F)CN1 (some centres unmarked)" value_reported="> 7.70"
compound="COc1nc(OCC2CC(F)(F)C2(F)F)c(F)cc1CN(C)C(=O)[C@@H]1CCCN1C (some centres unmarked) [Example 103, Hydrochloride]" value_reported="6.70 to 7.70"
compound="COc1nc(OC2CCC(C(F)F)CC2)c(F)cc1CNC(=O)[C@@H]1CCCN1 (some centres unmarked) [Example 66, hydrochloride]" value_reported="> 7.70"
compound="COc1nc(OC2CC(F)(F)C2)c(F)cc1CNC(=O)[C@H](C)N1CCC1 [Example 101, Hydrochloride]" value_reported="> 7.70"
compound=COc1nc(O[C@H]2CC[C@@H](C(F)(F)F)CC2)c(F)cc1CNC(=O)[C@@H]1CCCN1C value_reported="> 7.70"
